- TARGET_ENTITY: Human Factor D (Homo sapiens)
- Construct: purified from human serum; purchased Complement Technology, Inc; host or cells: human serum (natural protein, not recombinant)
- PROTOCOL_DESCRIPTION: Human Factor D Assay
- Assay type: biochemical
- MEASUREMENT_SETUP: Human Factor D 80 nM, substrate Z-L-Lys-SBzl; Table 2; read-out: IC50 (Stars)
pIC50: −log10 of the molar value.
I'd be grateful if you could share measured pIC50 for these entries.

pIC50 recorded for this compound, CC(=O)c1nn(CC(=O)N2[C@H](C(=O)NCC3(C)CC3)C[C@@]3(C)C[C@@H]23)c2c(C)cc(-c3cnc(C)nc3)cc12 [Compound 89] , is > 6.00

According to the records, this compound CC(=O)c1cn(CC(=O)N2C[C@H]3C[C@H]3[C@H]2C(=O)Nc2nc(Br)c(F)cc2C)c2c(C3CC3)cc(-c3cnc(C)nc3)cc12 [Compound 163] displays pIC50 of > 6.00

Entry CC(=O)c1cn(CC(=O)N2[C@H](C(=O)Nc3cncc(Br)n3)C[C@@]3(C)C[C@@H]23)c2c(C)cc(-c3cnc(C)nc3)cc12 [Compound 155] ; pIC50 = > 6.00

###

- TARGET_ENTITY: Human Factor D (Homo sapiens, UniProt P00746)
- Construct: purified from human serum; purchased Complement Technology, Inc; host or cells: human serum (natural protein, not recombinant)
- Sequence (P00746 26-253): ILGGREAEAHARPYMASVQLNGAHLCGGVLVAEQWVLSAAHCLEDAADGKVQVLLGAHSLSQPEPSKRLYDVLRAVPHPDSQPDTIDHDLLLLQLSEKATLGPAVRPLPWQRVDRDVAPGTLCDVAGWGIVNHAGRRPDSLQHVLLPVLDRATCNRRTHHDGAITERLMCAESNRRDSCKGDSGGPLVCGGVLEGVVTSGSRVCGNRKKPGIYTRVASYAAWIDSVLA
- PROTOCOL_DESCRIPTION: Human Factor D Assay
- Format: biochemical
- MEASUREMENT_SETUP: Human Factor D 80 nM, substrate Z-L-Lys-SBzl, assay of Example 3; read-out: IC50 (Stars)
Task for the reader: assign each of the following compounds its reported IC50.

IC50 reading for `CC(=O)c1nn(CC(=O)N2[C@H](C(=O)Nc3cccc(C(F)(F)F)c3F)C[C@@]3(C)C[C@@H]23)c2ccc(-c3cnc(C)nc3)cc12` : < 1000 nM

# IC50 (compound: `CC(=O)c1nn(CC(=O)N2C[C@H](F)C[C@H]2C(=O)Oc2cccc(Br)n2)c2ccc(-c3cnc(C)nc3)cc12` ) is 1000 to 10000 nM

// recorded IC50 for `CC(=O)c1nn(CC(=O)N2[C@H](C(=O)N[C@@H](C)[C@H]3CC3(Cl)Cl)C[C@@]3(C)C[C@@H]23)c2ccc(-c3cnc(C)nc3)cc12` : < 1000 nM

Just so you know, measured IC50 for `CC(=O)c1nn(CC(=O)N2[C@H](C(=O)N[C@H](C)CC(C)C)C[C@@]3(C)C[C@@H]23)c2ccc(-c3cnc(C)nc3)cc12` came out at < 1000 nM

The compound identified as `CC(=O)c1nn(CC(=O)N2[C@H](C(=O)Nc3nc(Br)ccc3C)C[C@@]3(C)C[C@@H]23)c2ccc(-c3cnc(CO)nc3)cc12` registered its IC50 at < 1000 nM

IC50 for `CC(=O)c1nn(CC(=O)N2C[C@H](F)C[C@H]2C(=O)Nc2cccc(Br)n2)c2ccc(-c3ccc(C)nn3)cc12` is < 1000 nM

// recorded IC50 for `CC(=O)c1nn(CC(=O)N2[C@H](C(=O)Nc3cccc(Br)n3)C[C@@]3(C)C[C@@H]23)c2c3c(c(-c4cnc(C)nc4)cc12)CCCO3` : < 1000 nM

The compound listed as `CCCCC[C@@H](C)NC(=O)[C@@H]1C[C@@]2(C)C[C@H]2N1C(=O)Cn1nc(C(C)=O)c2cc(-c3cnc(C)nc3)ccc21` shows IC50 equal to < 1000 nM

Measured IC50 of `CCC[C@@H](C)NC(=O)[C@@H]1C[C@@]2(C)C[C@H]2N1C(=O)Cn1nc(C(C)=O)c2cc(-c3cnc(C)nc3)ccc21` : < 1000 nM

Form field IC50, entry `CC(=O)c1nn(CC(=O)N2[C@H](C(=O)NCCc3ccncc3)C[C@@]3(C)C[C@@H]23)c2c(C)cc(-c3cnc(C)nc3)cc12` : 1000 to 10000 nM

Documented IC50 of `CC(=O)c1nn(CC(=O)N2[C@H](C(=O)Nc3nc(Br)ccc3C)C[C@@]3(C)C[C@@H]23)c2c(C)cc(-c3cnc(C(=O)O)nc3)cc12` : < 1000 nM

Form: compound = `CC(=O)c1nn(CC(=O)N2[C@H](C(=O)Nc3nc(Br)ccc3C)C[C@@]3(C)C[C@@H]23)c2c(C)cc(-c3cnc(C)nc3O)cc12` ; IC50 = < 1000 nM
